TGI overview
system: PC-3 prostate; assay: NCI tumour cell line growth inhibition, 48 h
The reply should be a number in µM, with the unit left off.

Cc1nc2ccccc2cc1C[N+]12CN3CN(CN(C3)C1)C2 | 34.3
CCC(C)CC(CC)NCCN1CCN(C(CC)CC(C)CC)C1=S (stereo not given) | 6.87

Indicate the recorded TGI value for this compound: O=C1CC(Cl)c2c(Cl)sc(Cl)c21 (stereo not given)
5.64

* * *

TGI overview
test system: SK-MEL-2 melanoma; assay: NCI tumour cell line growth inhibition, 48 h

Example results:
COC(=O)C(N)CCCC(N)C(=O)NC(C)C(=O)NC(CCC(=O)NCCCNc1ccc([N+](=O)[O-])c2[nH]c3ccccc3c(=O)c12)C(N)=O (stereo not drawn) | 46.2 µM
C#CC#CC#CC#CC#CC#CC#CC#CCC1OC[C@H](COC(=O)O[C@@H](C(=O)O[C@H]2C[C@@]3(O)[C@@H](OC(=O)c4ccccc4)[C@@H]4[C@]5(OC(C)=O)CO[C@@H]5C[C@H](O)[C@@]4(C)C(=O)[C@H](OC(C)=O)C(=C2C)C3(C)C)[C@@H](NC(=O)c2ccccc2)c2ccccc2)O1 (stereo partly drawn) | > 33.3 µM
CCOC(=O)C1=CN(C(=O)c2ccccc2)CCC1Cc1ccccc1 (stereo not drawn) | 35.9 µM
COP1(=S)OCC2CCC[C@@H]2O1 (stereo partly drawn) | > 100 µM
CS(=O)(=O)CS(=O)CS(=O)CS(=O)CC(NC(=O)CCC(N)C(=O)O)C(=O)O (stereo not drawn) | > 100 µM

Please look at COc1ccc(CCC2NCCc3cc(OC)c(OC)cc32)cc1 (stereo not drawn) and tell me its recorded TGI on SK-MEL-2 melanoma.
> 100 µM

Please look at O=C1c2ccccc2C2(O)Oc3cccc(O)c3C12O (stereo not drawn) and tell me its recorded TGI on SK-MEL-2 melanoma.
> 100 µM

Please look at CCOC(=O)C12C(=O)CCN1CCc1ccccc1C2C (stereo not drawn) and tell me its recorded TGI on SK-MEL-2 melanoma.
> 100 µM
